test system: Pancreatin; assay: Protease stability in simulated intestinal fluid (Pancreatin-SIF, FaSSIF); assay type: in vitro ADME; details: 60 min, 1 μM peptide, 37° C., read-out: FaSSIF 60 (min), remaining percent of peptide
Starred links: 1 amine or outer side, 2 acyl side, 3 side chain; linkers in the order of their positions; H or OH if unused. Positions of bridges follow the written chain, without caps; N, C: chain ends. Non-standard residues stand in square brackets, D forms with d. Residues, ends and D or L forms follow the SMILES beside them. *: point of attachment. Trp(7-Me) = Cc1cccc2c(C[C@H](N)C(=O)O)c[nH]c12; 2Nal = N[C@@H](Cc1ccc2ccccc2c1)C(=O)O; 3Pal = N[C@@H](Cc1cccnc1)C(=O)O; αMeL = CC(C)C[C@](C)(N)C(=O)O; Suc = O=C(CCC(=O)[*:2])[*:1]; Me2NCH2CH2 = CN(C)CC*; Aib = CC(C)(N)C(=O)O; Ava = NCCCCC(=O)O; Sar = CNCC(=O)O
measured.parameter: remaining at 1 h, 1 µM (%)
Give a bare numeral; the unit % is implied.

Cc1cccc2c(C[C@@H]3NC(=O)[C@H]([C@@H](C)O)NC(=O)[C@H](CC(N)=O)NC(=O)[C@@H]4CSSC[C@H](NC(=O)[C@H](CCC(N)=O)NC3=O)C(=O)N[C@@H](Cc3ccc(OCCN(C)C)cc3)C(=O)N[C@@H](Cc3ccc5ccccc5c3)C(=O)NC(C)(C)C(=O)N[C@H](C(=O)N[C@@H](CC(N)=O)C(=O)N[C@@H](Cc3cccnc3)C(=O)N(C)CC(N)=O)CCC(=O)NCCCCC(=O)N4)c[nH]c12 [compound 62] ([Ava]CNT[Trp(7-Me)]QCY(Me2NCH2CH2)[2Nal][Aib]EN[3Pal][Sar]-NH2; disulfide 2-7; lactam N-11) = 95

Task item: Entry under review: CC(=O)NCCCC[C@@H]1NC(=O)[C@H](Cc2c[nH]c3c(C)cccc23)NC(=O)[C@H]([C@@H](C)O)NC(=O)[C@H](CC(N)=O)NC(=O)[C@@H]2CSSC[C@H](NC1=O)C(=O)N[C@@H](Cc1ccc(OCCN(C)C)cc1)C(=O)N[C@@H](Cc1ccc3ccccc3c1)C(=O)N[C@@](C)(CC(C)C)C(=O)N[C@H](C(=O)N[C@@H](CC(N)=O)C(=O)N[C@@H](Cc1c[nH]cn1)C(N)=O)CCCCNC(=O)CCC(=O)N2 [compound 23] (CNT[Trp(7-Me)]K(Ac)CY(Me2NCH2CH2)[2Nal][αMeL]KNH-NH2; disulfide 1-6; linker N-10 via Suc) . Reported remaining at 1 h, 1 µM?
Reply: 79
